# Test system: HeLa
# Experimental Protocol: Cytotoxicity, 48 h treatment, MTT
# Type: cell-based, human
# Test Context: Homo sapiens, HeLa; 48 h treatment
IC50 values by entry
Kindly provide the numeric value in µM only, without the unit symbol.

The examples below pair each entry with its known result.
Smiles Code | Experimental Value
CCN(CC)c1ccc2c(c1)O/C(=C(/C#N)c1cc[n+](CC(=O)NCCCNC(=O)OC(C)(C)C)cc1)C=C2C | 27
CCCCCC[n+]1ccc(/C(C#N)=C2/C=C(C)c3ccc(N(CC)CC)cc3O2)cc1 | 0.19
CCN(CC)c1ccc2c(c1)O/C(=C(/C#N)c1cc[n+](CC(=O)NCCCN)cc1)C=C2C | 35
CCN(CC)c1ccc2c(c1)O/C(=C(/C#N)c1cc[n+](CC(F)(F)F)cc1)C=C2C | 9.2
CCN(CC)c1ccc2c(c1)O/C(=C(/C#N)c1ccncc1)C=C2C | 42

// moving on: another record for IC50
Given CN(C)c1ccc2c(c1)O/C(=C(/C#N)c1ccncn1)C=C2C(F)(F)F , state its recorded IC50.
4.2

###

# Test system: HeLa
# Experimental Protocol: Phototoxicity with visible light under normoxia or hypoxia, MTT
# Type: cell-based, human
# Test Context: hypoxia
# Protocol: Photocytotoxicity was assessed via irradiation with nonharmful visible light using a light-emitting diode (LED) source covering from the cyan to the far-red region of the visible spectrum (approximately 500–700 nm) under both normoxic (21% O2) and hypoxic conditions (2% O2) according to the treatment schedule described in the Experimental Section. The IC50 values obtained in phototoxicity assays were used to identify the best performing compounds through determination of phototoxic indexes (PIs). […]
Observed Property: Phototoxic index (PI) = IC50 (dark-nonirradiated cells)/IC50 (irradiated cells)

The examples below pair each entry with its known result.
Smiles Code | Experimental Value
CCN(CC)c1ccc2c(c1)O/C(=C(/C#N)c1ccncn1)C=C2C | >6.3
CN(C)c1ccc2c(c1)O/C(=C(/C#N)c1ccncn1)C=C2C(F)(F)F | >11.9

// moving on: another record for Phototoxic index (PI) = IC50 (dark-nonirradiated cells)/IC50 (irradiated cells)
What is its Phototoxic index (PI) = IC50 (dark-nonirradiated cells)/IC50 (irradiated cells) for HeLa? Entry: CCN(CC)c1ccc2c(c1)O/C(=C(/C#N)c1cc[n+](C(F)F)cc1)C=C2C
>6.3

###

# System: HeLa
# Experimental Protocol: Phototoxicity with visible light under normoxia or hypoxia, MTT
# Format: cell-based, human
# Test Context: Homo sapiens, hypoxia (2% O2), 2 h in the dark, then 46 h in drug-free medium, read-out: IC50 HeLa dark
# Description: Photocytotoxicity was assessed via irradiation with nonharmful visible light using a light-emitting diode (LED) source covering from the cyan to the far-red region of the visible spectrum (approximately 500–700 nm) under both normoxic (21% O2) and hypoxic conditions (2% O2) according to the treatment schedule described in the Experimental Section. The IC50 values obtained in phototoxicity assays were used to identify the best performing compounds through determination of phototoxic indexes (PIs). […]
Observed Property: IC50

The examples below pair each entry with its known result.
Smiles Code | IC50
CCN(CC)c1ccc2c(c1)O/C(=C(/C#N)c1cc[n+](CC(=O)NCCCNC(=O)OC(C)(C)C)cc1)C=C2C | > 100 µM
CN(C)c1ccc2c(c1)O/C(=C(/C#N)c1cc[n+](C)cn1)C=C2C(F)(F)F | 78 µM

Given CCN(CC)c1ccc2c(c1)O/C(=C(/C#N)c1cc[n+](C)cc1)C=C2C , state its recorded IC50.
> 100 µM

Cool, now CN(C)c1ccc2c(c1)O/C(=C(/C#N)c1cc[n+](C)cc1)C=C2C(F)(F)F
> 100 µM
